For each of the compounds below, state its composite z-score.
test-target: Concanavalin-A (Canavalia ensiformis)
method: ConA small-molecule binders, primary screen, artefact control for SMM control protein annotation, biochemical, small-molecule microarray, Alexa647 label, 635 nm (AID 1127);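 further: z combines 667 nm emission intensity with signal-to-noise across three replicate slides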
conditions: ConA-A647 binding fluorescence, higher = more signal
Numbers only.

Illustrative cases are given below, each with its answer.
compound | readout-value
COCCCNC(=O)[C@@]1(Cc2ccccc2)N=C(c2ccc(OCCCO)cc2)O[C@H]1c1ccccc1 | 1.12
O=C1C2C=CC(C(O)c3c(F)cccc3Cl)N(Nc3ccccc3)C2C(=O)N1c1ccccc1 (stereo not drawn) | 1.14
C=C(CCCC)C(=O)CC[C@@H](OC(=O)c1cccnc1)c1ccc(CO)o1 | 1.02
COc1ccc(CCN2C(=O)[C@@]3(c4ccc([N+](=O)[O-])cc4)CC(=O)N(C4CCCCC4)[C@@H]3c3ccc(CO)cc32)cc1 | 0.587
CCCCN1CC=CC23O[C@@H]4/C=C\CCC(C)OC(=O)C4[C@H]2C(=O)N(CCCCCO)[C@@H]3C1=O (stereo partly drawn) | -1.09
C=CCN1C(=O)[C@]2(O[C@H](CCO)[C@@H]([Si](C)(C)c3ccc(OC)cc3)[C@@H]2C)c2cc(N3C(=O)c4cccc5cccc3c45)ccc21 | 0.795
CC(C)(C)OC(=O)CC[C@]12N=C(c3ccc(OCCCO)cc3)O[C@H]1c1ccccc1N(CCS(=O)(=O)c1ccccc1)C2=O | 1.14

In: // lookup composite z-score for COc1ccc(CCNC(=O)[C@@]2(Sc3ccc(C)cc3)CC(=O)N(C3CCCCC3)[C@@H]2c2ccc(CO)cc2I)cc1
Out: 0.977

----------
method: HepG2 liver cancer cell viability effects, profiling panel, resazurin fluorescence, 24 h, PK04 Diversity Set (AID 1172); further: test concentration not given here
conditions: higher = more signal
# thresholds on z-score define classes: interval 1 (below -0.6), interval 2 (-0.6 to below -0.1), interval 3 (-0.1 or more)

compound | cat
O=C(c1ccccc1)N1Cc2ccccc2[C@@H]2OC(c3ccc(OCCCO)cc3)=N[C@]2(Cc2ccccc2)C1=O | interval 2
COc1ccc(CCN2C(=O)[C@@]3(Cc4ccccc42)c2ccccc2C(=O)N(Cc2ccccc2C(F)(F)F)[C@H]3c2ccc(CO)cc2)cc1 | interval 2
[N-]=[N+]=NCc1ccccc1C[C@]1(C(=O)N2CCOCC2)N=C(c2ccc(OCCCO)cc2)O[C@H]1c1ccccc1N=[N+]=[N-] | interval 3
CC(C)(C)OC(=O)CC[C@@]12N=C(c3ccc(OCCCO)cc3)O[C@@H]1c1ccccc1N(CCS(=O)(=O)c1ccccc1)C2=O | interval 2
COC(=O)[C@@]1(Cc2ccc(F)cc2)[C@H]2c3cc(C(=O)N4CCCC4)n(Cc4cc(C)n(C)n4)c3C[C@H]2CN1C(=O)c1ccccc1 | interval 1
CC(C)C[C@@H]1NC(=O)[C@@H]2C[C@H](C(=O)NCCCCCN)[C@H](c3cccc(OCCO)c3)N2C1=O | interval 2

In: Dear colleague, I would appreciate it if you could identify the bin for COCC(=C=CC[C@@H](O)c1ccccc1OCCO)C[C@@H](O)c1cc(Cl)cc(Cl)c1O and reply at your convenience.
Out: interval 2

In: Which bin, given its z-score, does O=C1NC(=O)C2C1C=CC(C(O)c1ccccc1)N2Nc1ccc(Cl)cc1Cl (stereo not given) occupy?
Out: interval 1

In: Input C#CCN(Cc1ccccc1Br)C(/C=C/c1ccccc1)CO (stereo not given) ; output its category
Out: interval 2

----------
method: fission yeast growth modulation, primary screen, strain 972, OD600, 24 h, no modulator (AID 1090);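 further: basal condition with compound alone and no growth modifier present; test concentration not given here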
conditions: S. pombe 972 growth, higher = more signal, called active from +8 up or from −8 down
Use true when the recorded z-score is no lower than -0.02; use false when it is lower.

compound | cat
CC(C)(C)C(=O)N[C@@H](c1ccc(Cl)cc1)[C@]1(C)C[C@H]1C1CCCCC1 | true
CCCC[C@@H]1C[C@H]1[C@@H](NC(=O)c1ccco1)c1ccc(C(=O)OC)cc1 | false
C=CCN1C(=O)[C@@]2(O[C@@H](CCO)[C@H]([Si](C)(C)c3ccc(OC)cc3)[C@H]2C)c2cc(NC(=O)c3ccc(OC)cc3)ccc21 | false
C=CCC(OC(C)=O)[C@@H]1[C@@H](N(Cc2ccc(-c3cccc(C(F)(F)F)c3)o2)C(=O)c2ccc(-c3ccccc3)cc2)c2cc(OCCCO)ccc2N1C(=O)c1ccc(-c2ccccc2)cc1 (stereo partly specified) | false
COCCOC(=O)N1C(=O)[C@@]2(c3cc(C#CC4(O)CCCCCC4)ccc31)[C@H](c1ccc(O)cc1)N1[C@H](c3ccccc3)[C@H](c3ccccc3)OC(=O)[C@H]1[C@@H]2C(=O)Nc1nc2ccccc2s1 | true

Attention now turns to another entry.
In: z-score >= -0.02 for COCCOC(=O)N1C(=O)[C@@]2(c3cc(C#Cc4ccc(OC)cc4)ccc31)[C@H](C(N)=O)[C@H]1C(=O)O[C@H](c3ccccc3)[C@H](c3ccccc3)N1[C@@H]2c1ccccc1OCCO ?
Out: true

----------
Could you please report measured composite z-score for the items listed next?
test-target: Neurogenic locus notch homolog protein 2 (Homo sapiens)
method: Notch2 binders on small-molecule microarrays, primary screen, biochemical, small-molecule microarray, 635 nm fluorescence, stem cell growth factors (AID 1073)
conditions: Notch2 binding, higher = more signal

See these solved cases before continuing.
compound | test-target | readout-value
CN(C)C(=O)[C@]1(Cc2ccccc2N=[N+]=[N-])N=C(c2ccc(OCCCO)cc2)O[C@@H]1c1ccccc1 | Neurogenic locus notch homolog protein 2 (Homo sapiens) | 1.31
COC(=O)[C@@]1(Cc2ccc(OC)cc2)[C@H]2c3cc(C(=O)N4CCCC4)n(Cc4ccsc4Br)c3C[C@H]2CN1C(=O)c1ccccc1 | Neurogenic locus notch homolog protein 2 (Homo sapiens) | 1.6

Continue with the next compound.
In: So what's the measured composite z-score for this one? C=CCNC(=O)[C@@H]1[C@H]2C(=O)O[C@H](c3ccccc3)[C@H](c3ccccc3)N2[C@H](c2ccc(OCCO)cc2)[C@@]12C(=O)Nc1ccc(C#CCCO)cc12
Out: 1.05

----------
method: inhibitors of hydroxyurea-induced Chk1 phosphorylation, primary screen, imaging, HeLa, phospho-Chk1 antibody, percent positive cells (AID 1186)
conditions: hydroxyurea-induced phospho-Chk1 immunofluorescence imaging, higher = more signal
experimental-endpoint: z-score
Give bare numbers.

Consider the reported z-score for these compounds:
compound | z-score
[N-]=[N+]=NCc1ccccc1C[C@@]1(C(=O)NCC(O)CO)N=C(c2ccc(OCCCO)cc2)O[C@@H]1c1ccccc1N=[N+]=[N-] (stereo not given in full) | -0.0225
CC(=O)n1cc(C(O)C2C=CC3C(=O)N(C)C(=O)C3N2Nc2ccccc2)c2ccccc21 (stereo not given) | -0.47
CCCC=C(CCC)[C@@H](NS(=O)(=O)c1cccs1)c1ccc(C(=O)OC)cc1 | -0.284
COC(=O)C(CC#Cc1ccc2c(c1)[C@]1(C(=O)N2)[C@H](C(=O)O)[C@H]2C(=O)O[C@H](c3ccccc3)[C@H](c3ccccc3)N2[C@@H]1c1ccc(O)cc1)C(=O)OC | -0.287

Look up z-score for the entries below, preserving their order.
1. COC(=O)C=C(CC(O)c1cccc(Cl)c1)OC (stereo not given)
2. O=C1O[C@@H](c2ccccc2)[C@@H](c2ccccc2)N2[C@@H](c3ccccc3OCCO)[C@]3(C(=O)Nc4ccc(C#CC5=CCCCC5)cc43)[C@@H](C(=O)Nc3nc4ccccc4s3)[C@H]12
3. CN1C(=O)C2C=CC(C(O)C3CC=CCC3)N(NC(=O)OC(C)(C)C)C2C1=O (stereo not given)
4. CCOC(=O)C[C@H]1[C@H](OC(=O)Cc2ccc3c(c2)OCO3)[C@@H](NC(=O)c2ccc(-c3ccccc3)cc2)c2cc(OCCCO)ccc2N1C(=O)c1ccc2ccccc2n1
5. NCCCCCNC(=O)[C@@H]1C[C@@H]2C(=O)NCC(=O)N2[C@@H]1c1ccc(O)cc1
6. CC(C)(C)OC(=O)CC[C@@]1(C(N)=O)N=C(c2ccc(OCCCO)cc2)O[C@@H]1c1ccccc1
7. COc1ccc(C(O)C2C=CC3C(=O)N(C)C(=O)C3N2N2CCCCC2)c2ccccc12 (stereo not given)

Out:
1. -1.22
2. -0.183
3. 0.867
4. 0.455
5. -0.44
6. 0.335
7. 0.294

Hey, quick one: what's z-score for each of these?
1. O=C1OCCC/C=C\[C@H]2OC34C=CCN(Cn5nnc6ccccc65)C(=O)[C@H]3N(CCO)C(=O)[C@@H]4C12 (stereo not given in full)
2. CCOC(=O)C[C@H]1[C@H](OC(=O)Cc2ccc3c(c2)OCO3)[C@@H](NC(=O)c2ccc(-c3ccccc3)cc2)c2cc(OCCCO)ccc2N1C(=O)Cc1ccc(OC)cc1
3. CCOC(=O)C[C@H]1[C@H](OC(=O)c2cc3ccccc3oc2=O)[C@@H](NC(=O)C2CCCCC2)c2cc(OCCCO)ccc2N1C(=O)c1ccccc1

Out:
0.0428
-0.324
0.895

In: Which z-score reading was recorded for the compound CN1C(=O)[C@]2(Cc3ccccc3)N=C(c3ccc(OCCCO)cc3)O[C@@H]2c2ccccc21 ?
Out: -0.276
